Numbers sourced from patent US11207431B2.

# TARGET UNDER TEST: HDAC6 (Homo sapiens (Human), UniProt Q9UBN7)
# Sequence (Q9UBN7 whole entry): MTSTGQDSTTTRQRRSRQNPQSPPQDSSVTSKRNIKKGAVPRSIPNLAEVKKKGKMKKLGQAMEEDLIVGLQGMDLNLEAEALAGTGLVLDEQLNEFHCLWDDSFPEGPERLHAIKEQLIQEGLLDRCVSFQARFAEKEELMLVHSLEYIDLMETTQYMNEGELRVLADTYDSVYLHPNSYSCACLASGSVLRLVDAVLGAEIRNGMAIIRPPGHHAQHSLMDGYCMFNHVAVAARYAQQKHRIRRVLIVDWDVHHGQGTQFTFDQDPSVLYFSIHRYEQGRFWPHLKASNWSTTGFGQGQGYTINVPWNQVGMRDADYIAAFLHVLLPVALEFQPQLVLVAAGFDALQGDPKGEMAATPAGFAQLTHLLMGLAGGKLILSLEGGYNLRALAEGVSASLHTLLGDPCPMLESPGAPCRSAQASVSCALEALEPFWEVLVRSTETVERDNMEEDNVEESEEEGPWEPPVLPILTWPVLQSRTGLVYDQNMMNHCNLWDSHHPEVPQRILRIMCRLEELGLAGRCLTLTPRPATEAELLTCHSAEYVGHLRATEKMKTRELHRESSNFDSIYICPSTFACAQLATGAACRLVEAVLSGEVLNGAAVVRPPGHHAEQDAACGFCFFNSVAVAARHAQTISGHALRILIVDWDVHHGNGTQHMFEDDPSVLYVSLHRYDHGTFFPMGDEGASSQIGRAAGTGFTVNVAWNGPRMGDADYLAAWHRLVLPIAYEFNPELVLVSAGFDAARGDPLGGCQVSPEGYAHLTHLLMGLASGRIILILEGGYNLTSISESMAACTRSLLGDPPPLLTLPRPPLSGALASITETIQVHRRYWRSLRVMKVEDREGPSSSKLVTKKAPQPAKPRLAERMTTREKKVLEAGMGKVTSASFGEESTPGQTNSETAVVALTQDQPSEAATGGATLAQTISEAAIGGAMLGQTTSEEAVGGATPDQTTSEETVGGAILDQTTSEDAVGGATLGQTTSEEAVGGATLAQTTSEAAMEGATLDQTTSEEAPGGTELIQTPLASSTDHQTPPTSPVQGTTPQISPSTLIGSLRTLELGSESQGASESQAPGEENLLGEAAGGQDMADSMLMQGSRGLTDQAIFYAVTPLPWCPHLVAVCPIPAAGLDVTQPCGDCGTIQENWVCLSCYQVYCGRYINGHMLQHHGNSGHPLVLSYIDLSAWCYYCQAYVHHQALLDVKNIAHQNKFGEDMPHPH
# EXPERIMENT: IC50 assay by Nanosyn (Caliper microfluidics mobility shift detection)
# Format: biochemical
# ASSAY CONDITIONS: Nanosyn (Table 1A)
MEASURED METRIC: IC50 (nM)

# count of solved cases: 3
O=C(NO)c1ccc(CNC23CC4CC(CC(C4)C2)C3)cc1 [Example 18]: 1380
CC1(C)C2CCC(CNCc3ccc(C(=O)NO)cc3)C1C2 (centres unmarked) [Example 23]: 149
Cc1cc(C(=O)NO)ccc1CNCC12CC3CC(CC(C3)C1)C2 [Example 11]: 574

A. O=C(NO)c1cc(F)c(CNCC23CC4CC(CC(C4)C2)C3)c(F)c1 [Example 9]
B. O=C(NO)c1ccc(CNCC23CC4CC(CC(C4)C2)C3)cc1F [Example 8]
Ask | Looking only at measured IC50, which entry is lower, A or B ? Give the label under which the chosen entry appears.
Reply | A
(A: 13.6 nM, B: 89 nM)
